Biological target: BRD4 (BD1+BD2) bromodomain (Homo sapiens (Human), UniProt O60885)
Assay: BRD4 binding inhibition (AlphaScreen, GST-BRD4 vs tetraacetylated histone H4 peptide)
Conditions: GST-BRD4 (BD1+BD2) / biotinylated acetyl-histone H4 (Lys5,8,12,16) peptide; read-out: IC50, BRD4 binding inhibition
pIC50: −log10 of the molar value.
Examples of compounds with documented pIC50 follow.

> print(dat)
                                   compound  result
1  COc1ccc2c(c1)nc(NCCCCC(=O)NCc1ccccc1)c1nnc(C)n12 [Example 658]  ≥ 7.30
2  CCCOC(=O)NCCCCNc1nc2cc(OC)c(OC)cc2n2c(C)nnc12 [Example 64]  ≥ 7.30
3  Cc1noc(C)c1-c1ccc2c(c1)nc(NCCCCNC(=O)[C@H](O)C(C)C)c1nnc(C)n12 [Example 586]  ≥ 7.30
4  CCOc1cc2nc(NCCCCNC(=O)OCC(C)C)c3nnc(C)n3c2cc1OCC [Example 176]  ≥ 8.00
5  Cc1nnc2c(NCCCCNC(=O)OC(C)(C)C)nc3cc(N4C[C@@H](C)O[C@@H](C)C4)ccc3n12 [Example 508]  ≥ 7.30

Input line: Could you tell me which pIC50 is on file for CCC(C)CC(=O)NCCCCNc1nc2cc(N3CCOCC3)ccc2n2c(C)nnc12 (centres unmarked) [Example 501] ?
Output line: ≥ 8.00

Input line: Same thing, different compound: COc1cc2nc(NCCCCNC(=O)C(C)(C)C)c3nnc(C)n3c2cc1C(F)(F)F [Example 477]
Output line: ≥ 7.30

Input line: Can you check COc1ccc2c(c1)nc(NCCCCNC(=O)C(N)C(C)C)c1nnc(C)n12 (centres unmarked) [Example 311] next?
Output line: ≥ 7.30

---

Target: BRD4 (BD1+BD2) bromodomain (Homo sapiens (Human))
Experiment: BRD4 binding inhibition (AlphaScreen, GST-BRD4 vs tetraacetylated histone H4 peptide)
Conditions: GST-BRD4 (BD1+BD2) / biotinylated acetyl-histone H4 (Lys5,8,12,16) peptide; read-out: IC50, BRD4 binding inhibition
Quantity kind: IC50

> print(dat)
                                   compound                             tested.system  quantity.kind   result
1  COc1cc2c(cc1C)nc(NCCCCNC(=O)OCC(C)C)c1nnc(C)n12  BRD4 (BD1+BD2) bromodomain (Homo sapiens (Human))           IC50  ≤ 50 nM
2  COCCOc1cc2nc(NCCCCNC(=O)c3ccccc3Cl)c3nnc(C)n3c2cc1OCCOC  BRD4 (BD1+BD2) bromodomain (Homo sapiens (Human))           IC50  ≤ 50 nM
3  COc1cc2nc(NCCCCNC(=O)c3cccc(Cl)c3Cl)c3nnc(C)n3c2cc1OC  BRD4 (BD1+BD2) bromodomain (Homo sapiens (Human))           IC50  ≤ 50 nM
4  COc1cc(C)c2c(c1)nc(NCCCCNC(=O)OC(C)(C)C)c1nnc(C)n12  BRD4 (BD1+BD2) bromodomain (Homo sapiens (Human))           IC50  ≤ 50 nM

Input line: Can you look up the measured IC50 of `CCNC(=O)NCCCCNc1nc2cc(OC)c(OC)cc2n2c(C)nnc12` for me?
Output line: ≤ 50 nM

Input line: Now give it for `COc1cc2nc(NCCCCNC(=O)NC3CCCCC3)c3nnc(C)n3c2cc1OC` too.
Output line: ≤ 50 nM

Input line: Same lookup for `COCCOc1ccc2c(c1)nc(NCCCCNC(=O)c1ccccc1F)c1nnc(C)n12` , please.
Output line: ≤ 10 nM

Input line: And for `Cc1nnc2c(NCCCCNC(=O)OC(C)(C)C)nc3cc(C(=O)NC(C)C)ccc3n12` ?
Output line: ≤ 50 nM

Input line: // same read-out, input: `COc1cc2nc(NCCCCNC(=O)CC(C)C)c3nnc(C)n3c2cc1NC(=O)CC(C)(C)C`
Output line: ≤ 50 nM

Input line: // same read-out, input: `COCCOc1ccc2c(c1)nc(NCCCCNC(=O)[C@@H](NS(C)(=O)=O)C(C)C)c1nnc(C)n12`
Output line: ≤ 50 nM

---

The entries below come with measured pIC50 values attached.
Target: BRD4 (BD1+BD2) bromodomain (Homo sapiens (Human))
Experiment: BRD4 binding inhibition (AlphaScreen, GST-BRD4 vs tetraacetylated histone H4 peptide)
Details: GST-BRD4 (BD1+BD2) / biotinylated acetyl-histone H4 (Lys5,8,12,16) peptide; read-out: IC50, BRD4 binding inhibition
Experimental: A mixture comprising 100 nM GST-BRD4 (BD1+BD2) and 100 nM biotinylated acetyl-histone H4 (Lys5,8,12,16) peptide was prepared in assay buffer (50 mM HEPES pH 7.4; 25 mM NaCl; 0.05% Tween 20; 0.1% bovine serum albumin (BSA); 10 mM dithiothreitol (DTT)). […] Then, the signals were measured with PerkinElmer Envision HTS Multilabel Reader using an alpha screen protocol of PerkinElmer. […]
pIC50: −log10 of the molar value.

Input line: Return reported pIC50; argument: COc1cccc2c1nc(NCCCCNC(=O)OCC(C)C)c1nnc(C)n12 [Example 120]
Output line: ≥ 7.30

Input line: Repeat with COc1cc2nc(NCCCCNC(=O)c3ccccc3)c3nnc(C)n3c2cc1OC [Example 95]
Output line: ≥ 7.30

Input line: Another compound to check: COc1cc2nc(NCCCCNC(=O)[C@@H](O)C(C)C)c3nnc(C)n3c2cc1OC [Example 83]
Output line: ≥ 8.00

Input line: Field entry: COc1cc2c(cc1C)nc(NCCCCNC(=O)[C@@H](O)C(C)C)c1nnc(C)n12 [Example 153]
Output line: ≥ 7.30

---

Molecular target: BRD4 (BD1+BD2) bromodomain (Homo sapiens (Human), UniProt O60885)
Assay: BRD4 binding inhibition (AlphaScreen, GST-BRD4 vs tetraacetylated histone H4 peptide)
Conditions: GST-BRD4 (BD1+BD2) / biotinylated acetyl-histone H4 (Lys5,8,12,16) peptide; read-out: IC50, BRD4 binding inhibition
pIC50: −log10 of the molar value.
Quantity kind: pIC50

Reference set, count: 6
> print(dat)
                                   compound  result
1  COc1cc(N)c(NC(=O)c2ccc3c(c2)nc(NCCCCNC(=O)CC(C)C)c2nnc(C)n23)cc1OC  ≥ 7.30
2  CC(=O)Nc1ccc2nc(NCCCCNC(=O)OC(C)(C)C)c3nnc(C)n3c2c1  ≥ 7.30
3  Cc1nnc2c(NCCCCNC(=O)CC(C)C)nc3cc(N4CCOCC4)ccc3n12  ≥ 8.00
4  CCC(F)(F)C(=O)NCCCCNc1nc2cc(-c3nc4ccccc4n3C)ccc2n2c(C)nnc12  ≥ 8.00
5  COCCOc1ccc2c(c1)nc(NCCCCNC(=O)CCC1CCCC1)c1nnc(C)n12  ≥ 8.00
6  Cc1nnc2c(NCCCCNC(=O)OC(C)(C)C)nc3cc(OC(C)C)ccc3n12  ≥ 7.30

Input line: What value of pIC50 has been recorded for this entry: `COc1ccc2c(c1)nc(NCCCCNC(=O)[C@H](C(C)C)N(C)C)c1nnc(C)n12`
Output line: ≥ 7.30

Input line: One more compound: `Cc1nnc2c(NCCCCNC(=O)CC(C)C)nc3ccc(N)cc3n12`
Output line: ≥ 7.30

Input line: What do you have for `Cc1nnc2c(NCCCCNC(=O)OC3CCCC3)nc3cc4c(cc3n12)OCCO4` ?
Output line: ≥ 7.30

Input line: Param item: `COc1ccc2c(c1)nc(NCCCCNC(=O)[C@@H](NC(=O)C(C)(C)C)C(C)C)c1nnc(C)n12`
Output line: ≥ 7.30

Input line: Input `CNc1cc2c(cc1OC)nc(NCCCCNC(=O)CC(C)C)c1nnc(C)n12`
Output line: ≥ 7.30

Input line: Same read-out for `Cc1nnc2c(NCCCCNC(=O)OC(C)(C)C)nc3ccc([N+](=O)[O-])cc3n12` ?
Output line: ≥ 7.30

---

Biological target: BRD4 (BD1+BD2) bromodomain (Homo sapiens (Human), UniProt O60885)
Assay: BRD4 binding inhibition (AlphaScreen, GST-BRD4 vs tetraacetylated histone H4 peptide)
Conditions: GST-BRD4 (BD1+BD2) / biotinylated acetyl-histone H4 (Lys5,8,12,16) peptide; read-out: IC50, BRD4 binding inhibition
The following compounds are listed with their measured IC50 values.

Known results for compounds:
> print(dat)
                                   compound  quantity.kind   result
1  COCCOc1ccc2c(c1)nc(NCCCCNC(=O)C(C)(C)O)c1nnc(C)n12           IC50  ≤ 50 nM
2  CCOc1ccc2c(c1)nc(NCCCCNC(=O)Cc1cccs1)c1nnc(C)n12           IC50  ≤ 50 nM
3  COc1ccc2c(c1)nc(NCCCCNC(=O)[C@@H](NC(=O)OCC(C)C)C(C)C)c1nnc(C)n12           IC50  ≤ 10 nM
4  COc1cc2nc(NCCCCNC(=O)c3ccccc3OC)c3nnc(C)n3c2cc1OC           IC50  ≤ 50 nM
5  Cc1nnc2c(NCCCCNC(=O)OCC(C)C)nc3cc(-n4ccnc4)ccc3n12           IC50  ≤ 10 nM
6  COc1cc2nc(NCCCCNC(=O)C(C)(C)C)c3nnc(C)n3c2cc1OC           IC50  ≤ 50 nM
7  CC(=O)Nc1ccc2c(c1)nc(NCCCCNC(=O)OC(C)(C)C)c1nnc(C)n12           IC50  ≤ 50 nM
8  Cc1nnc2c(NCCCCNC(=O)OC(C)(C)C)nc3cc(-n4ccnc4)ccc3n12           IC50  ≤ 10 nM

Input line: Bench note: what IC50 did `Cc1nnc2c(NCCCCNC(=O)NC(C)C)nc3cc4c(cc3n12)OCCO4` show?
Output line: ≤ 50 nM

Input line: Repeat for the following compound: `Cc1nnc2c(NCCCCNC(=O)c3ccccc3Cl)nc3cc4c(cc3n12)OCCO4`
Output line: ≤ 50 nM

Input line: // next record `COc1ccc2c(c1)nc(NCCCCNC(=O)Cc1ccccc1)c1nnc(C)n12`
Output line: ≤ 50 nM

Input line: Try the compound `Cc1nnc2c(NCCCCNC(=O)c3ccccc3)nc3cc4c(cc3n12)OCCO4`
Output line: ≤ 50 nM

Input line: Same again, this time with `CCOC(=O)CC(=O)NCCCCNc1nc2cc(OCCOC)ccc2n2c(C)nnc12`
Output line: ≤ 50 nM

Input line: Next record, please: `COCCOc1ccc2c(c1)nc(NCCCCNC(=O)c1cccc(Cl)c1Cl)c1nnc(C)n12`
Output line: ≤ 10 nM

Input line: Please give the result for `COc1ccc2c(c1)nc(NCCCCNC(=O)OCC(C)C)c1nnc(C(C)C)n12` too.
Output line: ≤ 50 nM

Input line: Same for `COc1cc(C)c2c(c1)nc(NCCCCNC(=O)CC(C)C)c1nnc(C)n12`
Output line: ≤ 10 nM

Input line: Same question for `COc1cc2nc(NCCCCNC(=O)CC(C)C)c3nnc(C)n3c2cc1NC(=O)Cc1ccccc1` please.
Output line: ≤ 10 nM

Input line: Now consider `Cc1nnc2c(NCCCCNC(=O)[C@@H](NS(C)(=O)=O)C(C)C)nc3cc(N4CCOCC4)ccc3n12` and answer again.
Output line: ≤ 50 nM

Cited source: patent US11028090B2
